# Test system: NCI-H522
# Test details: NCI tumour cell line growth inhibition, 48 h
Calls of active or inactive are those of the source. Cut-off read from the data, not from the text of the source: active = GI50 up to about 1.1 µM and inactive = higher.
Exercise: state measured GI50 for each of the compounds provided.

>  <Compound>
COc1ccc(/C=c2/s/c(=C(\C#N)c3nc4ccccc4[nH]3)n(-c3ccccc3)c2=O)cc1

>  <Readout value>
> 60.3 µM (inactive)

$$$$

# return GI50 for each item in the list
1. COc1ccc(C2C=C(c3ccccc3)Nc3nnnn32)cc1 (centres undefined)
2. C/C(CC(O)(C(F)(F)F)C(F)(F)F)=N/Nc1ccc([N+](=O)[O-])cc1[N+](=O)[O-]
3. C[C@]12CC[C@H](OC(=O)Cc3ccc(N(CCCl)CCCl)cc3)CC1=CC[C@@H]1[C@@H]2CC[C@]2(C)C(=O)CC[C@@H]12

["17.9 µM (inactive)", "2.07 µM (inactive)", "> 100 µM (inactive)"]
